target: T1, Human Alpha-1 antitrypsin (AAT) (human, UniProt P01009 25-418); assay: static adsorption isotherm, pure AAT in PBS pH 7.4, Langmuir fit
T1 construct: Pure AAT in buffer, as used in the isotherm and breakthrough studies; also called α-1 antitrypsin; human AAT
T1 sequence (P01009 25-418 limits assumed): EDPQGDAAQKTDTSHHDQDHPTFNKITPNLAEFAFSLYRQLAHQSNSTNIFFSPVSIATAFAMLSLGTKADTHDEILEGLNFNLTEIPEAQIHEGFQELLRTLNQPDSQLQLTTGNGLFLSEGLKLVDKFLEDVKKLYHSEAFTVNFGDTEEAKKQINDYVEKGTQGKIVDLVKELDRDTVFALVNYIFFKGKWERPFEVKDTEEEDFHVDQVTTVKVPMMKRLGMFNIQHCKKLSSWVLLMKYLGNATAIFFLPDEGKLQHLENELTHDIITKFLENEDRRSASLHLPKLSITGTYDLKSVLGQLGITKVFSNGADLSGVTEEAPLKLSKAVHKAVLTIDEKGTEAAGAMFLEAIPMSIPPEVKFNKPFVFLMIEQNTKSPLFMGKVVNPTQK
No end group written: not given here.
Readout Type: Qmax (mgAAT per mLR)
One number for each entry, in mgAAT per mLR.

Batch request: Qmax for each of the following binders.
1. KHAWIFG-{Toyopearl AF‑Amino‑650M resin} (not fully specified; printed as KHAWIFG-Toyopearl) [KHAWIFG-Toyopearl]
2. KFHAWNG-{Toyopearl AF‑Amino‑650M resin} (not fully specified; printed as KFHAWNG-Toyopearl) [KFHAWNG-Toyopearl]
3. KAWFKHWNG-{Toyopearl AF‑Amino‑650M resin} (not fully specified; printed as KAWFKHWNG-Toyopearl) [KAWFKHWNG-Toyopearl]

Given back:
[7.2, 8.9, 10.2]
